All figures here come from paper PMC9643456.

System: human red blood cells
Assay: Hemolytic activity
Type: cell-based
Conditions: red cells of human, 18 h, 25
Ends that are not written are not given here.
quantity.kind: Hemolysis percent, 25 μM
Write down the value, and be sure its unit follows.

Dear colleague, please send me the reported Hemolysis percent, 25 μM for RLWWRWIVR-NH2 [HLWCopW29-4] when you can. 1.02 ±0.01%

Dear colleague, please send me the reported Hemolysis percent, 25 μM for WLVWIWRRR-NH2 [LWCopW29] when you can. 0.84 ±0.06%

Dear colleague, please send me the reported Hemolysis percent, 25 μM for GVLVLFRRR-NH2 [Ptg C-ter 1] when you can. 0.40 ±0.10%

Dear colleague, please send me the reported Hemolysis percent, 25 μM for GVLVWFRRR-NH2 [Ptg C-ter 2] when you can. 0.52 ±0.05%

Dear colleague, please send me the reported Hemolysis percent, 25 μM for WLVWIGRRR-NH2 [Hybrid-2] when you can. 0.66 ±0.07%

Dear colleague, please send me the reported Hemolysis percent, 25 μM for GVWVLFRRR-NH2 [Ptg C-ter 3] when you can. 0.44 ±0.10%

Dear colleague, please send me the reported Hemolysis percent, 25 μM for RWLRWWIRV-NH2 [HLWCopW29-1] when you can. 1.20 ±0.14%

Dear colleague, please send me the reported Hemolysis percent, 25 μM for LLLLLWRRR-NH2 [AcWL-2] when you can. 14.39 ±0.70%

Dear colleague, please send me the reported Hemolysis percent, 25 μM for WLRRWWIRV-NH2 [HLWCopW29-2] when you can. 1.87 ±0.12%

Dear colleague, please send me the reported Hemolysis percent, 25 μM for WRLWRWIVR-NH2 [HLWCopW29-3] when you can. 1.10 ±0.14%

Dear colleague, please send me the reported Hemolysis percent, 25 μM for WLLWIALRKKR-NH2 [WCopW1] when you can. 7.03%

Dear colleague, please send me the reported Hemolysis percent, 25 μM for WLVWVGRRR-NH2 [Hybrid-1] when you can. 0.88 ±0.24%

Dear colleague, please send me the reported Hemolysis percent, 25 μM for WLLWIALRKKR-NH2 [WCopW2] when you can. 8.19%

Dear colleague, please send me the reported Hemolysis percent, 25 μM for WLVWVWRRR-NH2 [Hybrid-3] when you can. 4.26 ±0.63%

Dear colleague, please send me the reported Hemolysis percent, 25 μM for WLLLLLRRR-NH2 [AcWL-1] when you can. 11.89 ±1.24%

Dear colleague, please send me the reported Hemolysis percent, 25 μM for WLLLLWRRR-NH2 [AcWL-3] when you can. 16.44 ±0.89%
